Attribution: the RNAGym collection of RNA variant scans (doi:10.1093/molbev/msab373)

B1: Azoarcus group I ribozyme (parent)
chain: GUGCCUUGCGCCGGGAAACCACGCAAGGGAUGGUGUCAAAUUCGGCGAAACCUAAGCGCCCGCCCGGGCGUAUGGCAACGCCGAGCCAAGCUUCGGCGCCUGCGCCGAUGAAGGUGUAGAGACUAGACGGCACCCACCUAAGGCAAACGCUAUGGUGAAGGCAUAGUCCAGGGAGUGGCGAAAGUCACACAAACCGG

Variants of: B1
Experiment: reverse-splicing fitness (ratio to wild type); higher = more active; in vitro selection; Mg2+ level not given
Kindly return MET if reported reverse-splicing fitness is no lower than 0.007; return NOT MET if it is lower.

Solved entries:
| sequence change | label value |
| --- | --- |
| C82G A111U A120C A145C C150G U176G | NOT MET |
| C82U A111G A120C C150A U176G | NOT MET |
| C82U A111C A120G C169U U176A | MET |
| A111U A120G C150U C169A U176C | MET |
| A111C A120G C150A C169G U176G | NOT MET |

// query Is the recorded value of reverse-splicing fitness equal to or greater than 0.007 for this variant? A120U A145U C150G C169U
// result MET

// query Is the recorded value of reverse-splicing fitness equal to or greater than 0.007 for this variant? C82A A111G A120C A145G C150U C169A
// result MET

// query Is the recorded value of reverse-splicing fitness equal to or greater than 0.007 for this variant? C82G A111U A120G A145C C150A C169A U176A
// result MET

// query Is the recorded value of reverse-splicing fitness equal to or greater than 0.007 for this variant? C82A A111C A120G C150A C169G
// result MET

// query Is the recorded value of reverse-splicing fitness equal to or greater than 0.007 for this variant? C82A A111U A120C A145G C150U C169U U176G
// result MET
